# ASSAY TEXT: Inhibition kidney aldose reductase 2 by spectrophotometric analysis
Catalogue of IC50 values

# annotated cases, reported IC50 shown
>  <COMPOUND>
COc1cc2oc(=O)ccc2cc1O

>  <IC50>
101 µM

$$$$
>  <COMPOUND>
O=c1oc2ccccc2cc1O [3-HYDROXYCOUMARIN]

>  <IC50>
172 µM

$$$$

Moving on to the next compound.
Sure, the documented IC50 for CC(/C=C1\SC(=S)N(CC(=O)O)C1=O)=C\c1ccccc1 is 1.4 µM

====

# TESTED ON: Aldo-keto reductase family 1 member B1 (Homo sapiens)
# ASSAY TEXT: Inhibition human recombinant […] by spectrophotometric analysis
OBSERVED PROPERTY: pIC50
As a rule, pIC50 stands for the negative log10 of the concentration, concentration in M.

Here O=c1cc(-c2ccccc2)c2cc(O)c(O)cc2o1 was tested on Aldo-keto reductase family 1 member B1 (Homo sapiens), and its pIC50 came to 4.18

Here Cc1cc(=O)oc2cc(O)ccc12 [HYMECROMONE] was tested on Aldo-keto reductase family 1 member B1 (Homo sapiens), and its pIC50 came to 4.61

Here O=C(O)Cc1cc(=O)oc2cc(O)c(O)cc12 was tested on Aldo-keto reductase family 1 member B1 (Homo sapiens), and its pIC50 came to 4.20

Here Cc1cc(=O)oc2cc(O)c(O)cc12 [4-METHYLESCULETIN] was tested on Aldo-keto reductase family 1 member B1 (Homo sapiens), and its pIC50 came to 4.19

Here O=C(O)Cc1cc(=O)oc2cc(O)ccc12 was tested on Aldo-keto reductase family 1 member B1 (Homo sapiens), and its pIC50 came to 4.68

Here O=c1ccc2cc(O)c(O)cc2o1 [ESCULETIN] was tested on Aldo-keto reductase family 1 member B1 (Homo sapiens), and its pIC50 came to 4.17

====

Assay system Sorbitol dehydrogenase (Homo sapiens); read-out recorded as pIC50.
As a rule, pIC50 stands for the negative log10 of the concentration, concentration in M.

# annotated cases, reported pIC50 shown
>  <MOLECULE>
Cc1cc(=O)oc2cc(O)c(O)cc12 [4-METHYLESCULETIN]

>  <TESTED ON>
Sorbitol dehydrogenase (Homo sapiens)
Sequence (Q00796 whole entry): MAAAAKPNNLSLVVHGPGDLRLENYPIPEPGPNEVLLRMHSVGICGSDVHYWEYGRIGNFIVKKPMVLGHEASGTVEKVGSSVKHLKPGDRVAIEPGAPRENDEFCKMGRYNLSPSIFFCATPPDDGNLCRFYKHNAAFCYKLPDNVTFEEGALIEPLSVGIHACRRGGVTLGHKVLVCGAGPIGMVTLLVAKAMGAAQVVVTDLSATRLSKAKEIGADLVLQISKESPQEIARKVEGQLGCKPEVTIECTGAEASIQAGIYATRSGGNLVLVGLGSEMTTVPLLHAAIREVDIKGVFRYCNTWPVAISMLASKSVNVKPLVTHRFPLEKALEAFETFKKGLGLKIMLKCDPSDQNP

>  <pIC50>
3.67

$$$$
>  <MOLECULE>
COc1cc2ccc(=O)oc2cc1O [SCOPOLETIN]

>  <TESTED ON>
Sorbitol dehydrogenase (Homo sapiens)

>  <pIC50>
3.86

$$$$
>  <MOLECULE>
O=c1cc(-c2ccccc2)c2cc(O)c(O)cc2o1

>  <TESTED ON>
Sorbitol dehydrogenase (Homo sapiens)

>  <pIC50>
3.54

$$$$

Sure, the documented pIC50 for COc1ccc2ccc(=O)oc2c1 [HERNIARIN] is 3.91

Sure, the documented pIC50 for CC(/C=C1\SC(=S)N(CC(=O)O)C1=O)=C\c1ccccc1 is 4.17

====

Assay system Sorbitol dehydrogenase (Homo sapiens, UniProt Q00796); read-out recorded as pIC50.
As a rule, pIC50 stands for the negative log10 of the concentration, concentration in M.

# annotated cases, reported pIC50 shown
>  <COMPOUND>
O=c1oc2ccccc2cc1O [3-HYDROXYCOUMARIN]

>  <pIC50>
3.97

$$$$
>  <COMPOUND>
O=c1ccc2cc(O)c(O)cc2o1

>  <pIC50>
4.08

$$$$

Moving on to the next compound.
Sure, the documented pIC50 for O=c1ccc2ccc(O)cc2o1 is 3.92
